Values from patent US12257243B2

Quick list: ALP in NHAC (% Efficacy) per entry.
system: ALP in normal human articular chondrocytes (NHACs); assay: Alkaline Phosphatase (ALP) activity assay (staining and quantitation) in NHACs, prevention of chondrocyte hypertrophy; type: cell-based; conditions: value in parentheses, human IL-1 beta 10 ng/mL, 12 days
Answers without a unit are incomplete; give the number and then its unit.

Solved cases (8 shown):
COc1ccc(C(F)(F)F)cc1NC(=O)[C@H]1[C@H](c2cn(C)nc2C(F)(F)F)[C@@H]2O[C@H]1C[C@H]2O (single isomer, unassigned) [Example 33a] : 79%
Cn1cc([C@H]2[C@H]3O[C@H](C[C@@H]3O)[C@@H]2C(=O)Nc2cc(C(F)(F)F)ccn2)c(C(F)(F)F)n1 (single isomer, unassigned) [Example 38b] : 27%
Cn1cc([C@H]2[C@H]3O[C@H](C[C@@H]3O)[C@@H]2C(=O)Nc2cc(C(F)(F)F)ccc2C#N)c(C(F)(F)F)n1 (single isomer, unassigned) [Example 49b] : 54%
N#Cc1ccc(C(F)(F)F)cc1NC(=O)[C@@H]1[C@@H](c2cccc(C(F)(F)F)c2)[C@H]2O[C@@H]1C[C@@H]2O (single isomer, unassigned) [Example 48a] : 109%
Cn1cc([C@H]2[C@H]3O[C@H](C[C@@H]3O)[C@@H]2C(=O)Nc2cccc(C(F)(F)F)c2)c(C(F)(F)F)n1 (single isomer, unassigned) [Example 32b] : 109%
Cn1cc([C@H]2[C@H]3O[C@H](C[C@@H]3O)[C@@H]2C(=O)Nc2cccc(C(F)(F)F)c2)c(C(F)(F)F)n1 (single isomer, unassigned) [Example 32a] : 87%
Cn1cc([C@H]2[C@H]3O[C@H](C[C@@H]3O)[C@@H]2C(=O)Nc2cc(C(F)(F)F)c(Cl)cn2)c(C(F)(F)F)n1 (single isomer, unassigned) [Example 36a] : 95%
COc1ccc(C(F)(F)F)cc1NC(=O)[C@H]1[C@H](c2cn(C)nc2C(F)(F)F)[C@@H]2O[C@H]1C[C@H]2O (single isomer, unassigned) [Example 33b] : 99%

Prompt: Look up ALP in NHAC (% Efficacy) for this compound: COc1cc([C@@H]2[C@@H]3O[C@@H](C[C@H]3O)[C@H]2C(=O)Nc2cc(C(F)(F)F)ccc2C#N)ccn1 (single isomer, unassigned) [Example 78a]
Completion: 100%

Prompt: Can you share its ALP in NHAC (% Efficacy)? I mean this compound: Cn1nc(C(F)(F)F)cc1[C@H]1[C@H]2O[C@H](C[C@@H]2O)[C@@H]1C(=O)Nc1cc(C(F)(F)F)ccc1C#N (single isomer, unassigned) [Example 72a]
Completion: 107%

Prompt: Entry O=C(Nc1ccc(C(F)(F)F)c(Cl)n1)[C@@H]1[C@@H](c2cccc(C(F)(F)F)c2)[C@H]2O[C@@H]1C[C@@H]2O (single isomer, unassigned) [Example 25b] has what ALP in NHAC (% Efficacy)?
Completion: 99%

====

Below, each entry is listed with its recorded Emax.
tested on: ALP in normal human articular chondrocytes (NHACs); assay: Alkaline Phosphatase (ALP) activity assay (staining and quantitation) in NHACs, prevention of chondrocyte hypertrophy; assay type: cell-based; conditions: Chondrocyte, 288 h, value in parentheses, human IL-1 beta 10 ng/mL, 12 days, read-out: ALP in NHAC (% Efficacy)
# value in %; strip the unit string

Example cases with answers are listed next.
COc1ccc(C(F)(F)F)cc1NC(=O)[C@@H]1[C@@H](c2cccc(C(F)(F)F)c2)[C@H]2O[C@@H]1C[C@@H]2O (racemic) : 75
Cc1c(NC(=O)[C@@H]2[C@@H](c3cn(C)nc3C(F)(F)F)[C@H]3O[C@@H]2C[C@@H]3O)cccc1C(F)(F)F (racemic) : 21
COc1cc([C@H]2[C@H]3O[C@H](C[C@@H]3O)[C@@H]2C(=O)Nc2ccc(C(F)(F)F)c(Cl)c2)ccn1 (racemic) : 75
COc1ccc(C(F)(F)F)cc1NC(=O)[C@@H]1[C@@H](c2cn(C)nc2C(F)(F)F)[C@H]2O[C@@H]1C[C@@H]2O (racemic) : 74
O=C(Nc1cccc(C(F)(F)F)c1)[C@@H]1[C@@H](c2ccnc(F)c2)[C@H]2O[C@@H]1C[C@@H]2O (racemic) : 34
O=C(Nc1cc(Cl)cc(C(F)(F)F)c1)[C@@H]1[C@@H](c2cccc(C(F)(F)F)c2)[C@H]2O[C@@H]1C[C@@H]2O (racemic) : 102
Cn1nc(C(F)(F)F)cc1[C@H]1[C@H]2O[C@H](C[C@@H]2O)[C@@H]1C(=O)Nc1cccc(C(F)(F)F)c1 (racemic) : 46
O=C(Nc1cc(F)cc(C(F)(F)F)c1)[C@@H]1[C@@H](c2cccc(C(F)(F)F)c2)[C@H]2O[C@@H]1C[C@@H]2O (racemic) : 105

Prompt: If you can, please state the reported Emax value of Cc1ccc(NC(=O)[C@@H]2[C@@H](c3cc(C(F)(F)F)nn3C)[C@H]3O[C@@H]2C[C@@H]3O)cc1C(F)(F)F (racemic) .
Completion: 81

Prompt: Please look up its Emax: Cc1ccc(C(F)(F)F)cc1NC(=O)[C@@H]1[C@@H](c2cccc(C(F)(F)F)c2)[C@H]2O[C@@H]1C[C@@H]2O (racemic)
Completion: 78

Prompt: Value lookup for Emax; key = O=C(Nc1cccc(C(F)(F)F)c1)[C@@H]1[C@@H](c2cnc(C(F)(F)F)nc2)[C@H]2O[C@@H]1C[C@@H]2O (racemic)
Completion: 43

Prompt: Which measured Emax value corresponds to Cn1cc([C@H]2[C@H]3O[C@H](C[C@@H]3O)[C@@H]2C(=O)Nc2cccc(C(F)(F)F)c2F)c(C(F)(F)F)n1 (racemic) ?
Completion: 50

====

system: ALP in normal human articular chondrocytes (NHACs); experiment: Alkaline Phosphatase (ALP) activity assay (staining and quantitation) in NHACs, prevention of chondrocyte hypertrophy; type: cell-based; conditions: Chondrocyte, 288 h, value in parentheses, human IL-1 beta 10 ng/mL, 12 days, read-out: ALP in NHAC (% Efficacy)
Reported Emax values for a set of compounds
Just the number in %, nothing appended.

Reference set (4 entries):
Cn1cc([C@H]2[C@H]3O[C@H](C[C@@H]3O)[C@@H]2C(=O)Nc2cc(C(F)(F)F)ccn2)c(C(F)(F)F)n1 (racemic) : 94
O=C(Nc1ccc(C(F)(F)F)nc1)[C@@H]1[C@@H](c2cccc(C(F)(F)F)c2)[C@H]2O[C@@H]1C[C@@H]2O (racemic) : 38
COc1ccc(NC(=O)[C@@H]2[C@@H](c3cccc(C(F)(F)F)c3)[C@H]3O[C@@H]2C[C@@H]3O)cc1C(F)(F)F (racemic) : 102
Cn1cc([C@H]2[C@H]3O[C@H](C[C@@H]3O)[C@@H]2C(=O)Nc2cc(C(F)(F)F)cc(C(F)(F)F)c2)c(C(F)(F)F)n1 (racemic) : 101

Prompt: Entry N#Cc1cc(NC(=O)[C@@H]2[C@@H](c3cccc(C(F)(F)F)c3)[C@H]3O[C@@H]2C[C@@H]3O)cc(C(F)(F)F)c1 (racemic) : reported Emax = ?
Completion: 87

Prompt: Dear colleague, I am looking for the recorded Emax of the following compound: COc1cc([C@H]2[C@H]3O[C@H](C[C@@H]3O)[C@@H]2C(=O)Nc2cc(C(F)(F)F)ccc2C#N)ccn1 (racemic)
Completion: 74

====

system: ALP in normal human articular chondrocytes (NHACs); assay: Alkaline Phosphatase (ALP) activity assay (staining and quantitation) in NHACs, prevention of chondrocyte hypertrophy; type: cell-based; details: Chondrocyte, 288 h, human IL-1 beta 10 ng/mL, 12 days, Fast Blue RR staining, high content imaging, read-out: ALP in NHAC IC50
The label 1 (yes) is reserved for IC50 strictly under 10 µM; 0 (no) covers values equal to or above it.

// known answers, use as guide
O=C(Nc1ccc(N2CCOCC2)c(C(F)(F)F)c1)[C@@H]1[C@@H](c2cccc(C(F)(F)F)c2)[C@H]2O[C@@H]1C[C@@H]2O (racemic) [Example 23] : 0 (no)
Cn1cc([C@H]2[C@H]3O[C@H](C[C@@H]3O)[C@@H]2C(=O)Nc2cc(C(F)(F)F)c(Cl)cn2)c(C(F)(F)F)n1 (racemic) [Example 36] : 1 (yes)
Cn1cc([C@H]2[C@H]3O[C@H](C[C@@H]3O)[C@@H]2C(=O)Nc2ccc(Cl)c(C(F)(F)F)c2)c(C(F)(F)F)n1 (racemic) [Example 53] : 1 (yes)
COc1cc([C@H]2[C@H]3O[C@H](C[C@@H]3O)[C@@H]2C(=O)Nc2cc(C(F)(F)F)ccn2)ccn1 (racemic) [Example 77] : 0 (no)
O=C(Nc1cccc(C(F)(F)F)c1)[C@@H]1[C@@H](c2cncc(C(F)(F)F)c2)[C@H]2O[C@@H]1C[C@@H]2O (racemic) [Example 81] : 0 (no)
O=C(Nc1ccc(C(F)(F)F)cc1)[C@@H]1[C@@H](c2ccnc(C(F)(F)F)c2)[C@H]2O[C@@H]1C[C@@H]2O (racemic) [Example 66] : 0 (no)

Now look at this entry.
Prompt: Please let me know if CCOc1ccc(NC(=O)[C@@H]2[C@@H](c3cn(C)nc3C(F)(F)F)[C@H]3O[C@@H]2C[C@@H]3O)cc1C(F)(F)F (racemic) [Example 44] shows IC50 below 10 µM.
Completion: 0 (no)
